PROTOCOL NOTES: Molar enthalpy of transition or fusion
ASSAY CONDITIONS: Crystal; DSC
In this section, each of the molecules is paired with its reported Molar enthalpy of transition or fusion.
The figure you give is taken to be in kJ/mol; do not add the unit.

The examples below pair each entry with its known result.
For this molecule ( Cc1c(C)c(C)c(C)c(C)c1C ), measured Molar enthalpy of transition or fusion is 20.6

Molar enthalpy of transition or fusion reading for Cc1c(C)c(C)c(Br)c(C)c1C : 15.1

Sure, the documented Molar enthalpy of transition or fusion for Clc1c(Cl)c(Cl)c(Cl)c(Cl)c1Cl is 23.9

Others:
// Molar enthalpy of transition or fusion lookup, molecule = Nc1c(Cl)c(Cl)c(Cl)c(Cl)c1Cl , result: 18.5
